Can you tell me TGI for the items I'm about to list?
Tested on: UACC-62 melanoma
Assay: NCI tumour cell line growth inhibition, 48 h

Problem: GET /values?readout=TGI&item= COc1cccc2c1[C@H]1OC(=O)NC1CCCCC2 (stereo partly drawn)
Result: > 100 µM

Problem: Which TGI is reported for this compound? COC(=O)[C@]1(C)CCCC2(C)C3=C(CCC21)CC1(CC3)SCCS1 (stereo partly drawn)
Result: > 10 µM

Problem: // query TGI value for entry CN(C)c1ccc2c(c1)OC(N)=C(C#N)C2c1ccc2c(c1)CCCN2C (stereo not drawn)
Result: 33.9 µM

Problem: Entry under review: CC1=C2CC(C)(C)CC(=O)C2(C)CCC1=O (stereo not drawn) . Reported TGI?
Result: > 100 µM

Problem: What value of measured TGI is listed for `Cc1cc(C)c(S(=O)(=O)N(CCCN)OCCCN)c(C)c1` ?
Result: > 100 µM

Problem: Please report the recorded TGI for `COc1cccc(Nc2nc(NS(=O)(=O)c3cc(C)c(Cl)cc3S)n[nH]2)c1` .
Result: > 100 µM

Problem: Quick check: TGI of `O=c1c2ccccc2n2cnc3ccc(NCCNCCO)c1c32` ?
Result: 7.27 µM

Problem: Form field: reported TGI of `Nc1ccn([C@@H]2S[C@H](CO)[C@@H](O)[C@@H]2F)c(=O)n1`
Result: > 38.2 µM
